Tested on: 323965-272-R-J2-PDC complex spheroid growth, % test/control;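 also: compound exposure lasted 7 days starting three days after spheroid seeding; 100% = DMSO vehicle control wells with viability set relative to vehicle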
experiment.notes: Anticancer human tumor 323965-272-R-J2-PDC patient-derived pancreatic carcinoma cell line growth inhibition [Asc]
condition.summary: second compound 1 µM; first compound 1 µM; active compounds read low
# viability, T/C values compiled below
measure.name: viability, T/C (%)

molecule="COc1c(OCCCN2CCOCC2)ccc2c3n(c(=NC(=O)c4cnc(N)nc4)nc12)CCN3 + Cc1c(S(C)(=O)=O)c(-c2cc(F)cc(N3CCN(c4ccc(NS(=O)(=O)c5ccc(NC(CCN6CCC(C(=O)OCCCP(=O)(O)O)CC6)CSc6ccccc6)c(S(=O)(=O)C(F)(F)F)c5)cc4)CC3)c2)c(-c2ccc(Cl)cc2)n1C(C)C" quantitative_readout=23.1
molecule="O=C(c1ccc(F)c(F)c1Nc1ccc(I)cc1F)N1CC(O)([C@@H]2CCCCN2)C1 + CNC(C)C(=O)NC1CN(S(=O)(=O)c2cccc(S(=O)(=O)N3CCC4CCC(C(=O)NC(c5ccccc5)c5ccccc5)N4C(=O)C(NC(=O)C(C)NC)C3)c2)CCC2CCC(C(=O)NC(c3ccccc3)c3ccccc3)N2C1=O" quantitative_readout=9.3
